Test system: SK-MEL-28 melanoma
protocol-details: NCI tumour cell line growth inhibition, 48 h; in the data active means GI50 below about 0.43 µM; inactive means the rest
Just give me one of these, please: active, inactive

# compound, system-tested, cat
measured = [
    ("COc1ccc(N(CC(=O)NCCC[Te]c2ccccc2)C(=O)CCSC2=C(C)C(=O)c3ccccc3C2=O)cc1", "SK-MEL-28 melanoma", "inactive"),
    ("Cn1ncc2c(/N=C/c3cccs3)[nH]c(=S)nc21", "SK-MEL-28 melanoma", "inactive"),
    ("CC1(C)CC(=O)C2=C(C1)NC(SSC1=C(C#N)C(c3ccc(F)cc3)C3=C(CC(C)(C)CC3=O)N1)=C(C#N)C2c1ccc(F)cc1 (stereo not given)", "SK-MEL-28 melanoma", "inactive"),
    ("COc1cc(C#N)cc(OC)c1OCCOCCOc1c(OC)cc(C#N)cc1OC", "SK-MEL-28 melanoma", "inactive"),
]

Now let's try a different one.
Record lookup: outcome of this test for `COc1cc(/C=C2\CN(C)C/C(=C\c3cc(OC)c(OC)c(OC)c3)C2=O)cc(OC)c1OC` ?
active

Provenance of the data: PubChem BioAssay (NCI)
